What IC50 was measured for each of the following?
Target: Human DGKα(9-727) (Homo sapiens (Human), UniProt P23743)
Sequence (P23743 whole entry, looked up): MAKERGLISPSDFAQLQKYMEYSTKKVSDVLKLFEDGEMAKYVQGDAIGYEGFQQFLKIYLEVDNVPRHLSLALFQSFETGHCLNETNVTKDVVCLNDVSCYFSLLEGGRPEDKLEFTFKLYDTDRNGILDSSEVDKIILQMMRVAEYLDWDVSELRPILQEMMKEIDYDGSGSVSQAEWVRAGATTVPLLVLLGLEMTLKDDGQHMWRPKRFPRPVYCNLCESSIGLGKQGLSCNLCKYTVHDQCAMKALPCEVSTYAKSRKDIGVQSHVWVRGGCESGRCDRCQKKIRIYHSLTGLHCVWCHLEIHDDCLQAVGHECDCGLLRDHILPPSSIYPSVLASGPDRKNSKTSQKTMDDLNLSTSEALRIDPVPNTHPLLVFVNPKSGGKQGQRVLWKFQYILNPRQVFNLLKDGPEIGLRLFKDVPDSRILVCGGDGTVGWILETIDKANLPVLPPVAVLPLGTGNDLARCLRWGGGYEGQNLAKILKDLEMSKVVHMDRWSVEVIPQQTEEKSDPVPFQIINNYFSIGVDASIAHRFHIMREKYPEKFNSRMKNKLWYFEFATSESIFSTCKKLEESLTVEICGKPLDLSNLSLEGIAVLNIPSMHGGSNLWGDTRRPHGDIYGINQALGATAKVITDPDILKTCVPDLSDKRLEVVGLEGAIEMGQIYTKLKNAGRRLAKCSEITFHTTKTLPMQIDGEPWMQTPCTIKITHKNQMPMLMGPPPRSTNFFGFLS
Test: biochemical
Settings: liposome (LIPGLO) assay; Table A; read-out: DGKα LIPGLO IC50
Give bare numbers, in µM.

As a guide, the following entries are already answered.
>  <COMPOUND>
CCO[C@H]1CN(c2cc(=O)n(C)c3ccc(C#N)nc23)CC[C@@H]1Oc1cnc(OC(C)C)cn1 [Example 377]

>  <IC50, µM>
0.13

$$$$
>  <COMPOUND>
COCCO[C@@H]1CN(c2cc(=O)n(C)c3ccc(C#N)nc23)CC[C@H]1Oc1cccc(C(F)(F)F)c1

>  <IC50, µM>
2.5

$$$$
>  <COMPOUND>
CCO[C@H]1CN(c2nc(=O)n(C)c3ccc(C#N)nc23)CC[C@@H]1Oc1ccc(C(F)(F)F)cc1

>  <IC50, µM>
5.6

$$$$

Recorded IC50 for CCO[C@H]1CN(c2nc(=O)n(C)c3ccc(C#N)nc23)CC[C@@H]1Oc1ccccc1 (relative stereo) [Example 403] , please?
19

---

What pEC50 was measured for each of the following?
Tested on: Human venous whole blood (IFN-γ)
Assay: Human whole blood IFN-γ assay
Type: cell-based
Conditions: Homo sapiens, 24 h, human whole blood, anti-CD3 plus anti-CD28, 24 hours; read-out: INFg Whole Blood Normalized Agonist EC50
Give bare numbers, as −log10 of the molar value.

As a guide, the following entries are already answered.
>  <COMPOUND>
C[C@@H]1CN(c2cc(=O)n(C)c3ccc(C#N)nc23)CC[C@H]1Oc1ccc(C2CC2)cc1 (racemic) [Example 111]

>  <MEASURED ON>
Human venous whole blood (IFN-γ)

>  <pEC50>
5.48

$$$$
>  <COMPOUND>
CC[C@@H]1CN(c2cc(=O)n(C)c3ccc(C#N)nc23)CC[C@H]1Oc1ccc(OC(C)(C)C)cc1 [Example 158]

>  <MEASURED ON>
Human venous whole blood (IFN-γ)

>  <pEC50>
5.70

$$$$
>  <COMPOUND>
Cc1cc(F)cc(OC2CCN(c3c([N+](=O)[O-])c(=O)n(C)c4ccc(F)cc34)CC2)c1 [Example 1]

>  <MEASURED ON>
Human venous whole blood (IFN-γ)

>  <pEC50>
5.00

$$$$
>  <COMPOUND>
COc1ccc(OC2CCN(c3c(C#N)c(=O)n(C)c4ccc(Cl)nc34)CC2)cc1 [Example 14]

>  <MEASURED ON>
Human venous whole blood (IFN-γ)

>  <pEC50>
5.15

$$$$
>  <COMPOUND>
Cn1c(=O)cc(N2CCC(Oc3ccc(C4CC4)cc3)CC2)c2nc(C#N)ccc21 [Example 59]

>  <MEASURED ON>
Human venous whole blood (IFN-γ)

>  <pEC50>
5.19

$$$$

Working through the 2 compounds below one at a time, give pEC50 for each.
1. CC[C@@H]1CN(c2cc(=O)n(C)c3ccc(C#N)nc23)CC[C@H]1Oc1ccc(C(F)(F)F)cc1 (racemic) [Example 146]
2. CC(C)c1ccc(O[C@H]2CCN(c3cc(=O)n(C)c4ccc(C#N)nc34)C[C@H]2C)cc1 [Example 176]

1. 5.77
2. 5.64

---

System: human venous whole blood, CD8 positive population (pERK)
Test: DGK human whole blood pERK assay
Assay type: cell-based
Details: Homo sapiens, CD8 positive, read-out: DGK HWB, human whole blood pERK
ASSAY METRIC: EC50 (µM)
Give bare numbers, in µM.

As a guide, the following entries are already answered.
>  <COMPOUND>
CCO[C@H]1CN(c2cc(=O)n(C)c3ccc(C#N)nc23)CC[C@@H]1Oc1ccc(OC(C)C)nn1

>  <MEASURE UNIT>
µM

>  <EC50>
2.3

$$$$
>  <COMPOUND>
CC[C@@H]1CN(c2nc(=O)n(C)c3ccc(C#N)nc23)[C@@H](C)C[C@@H]1Oc1ccc(OC(C)C)cn1

>  <MEASURE UNIT>
µM

>  <EC50>
0.17

$$$$
>  <COMPOUND>
C[C@@H]1CC(Oc2cccc(C(F)(F)F)c2)[C@@H](C)CN1c1nc(=O)n(C)c2ccc(C#N)nc12 (stereo in doubt)

>  <MEASURE UNIT>
µM

>  <EC50>
1.8

$$$$

Below: the item to evaluate.
Recorded EC50 for C[C@@H]1CN(c2nc(=O)n(C)c3ccc(C#N)nc23)[C@@H](C)CC1Oc1cccc(C(F)(F)F)c1 (stereo in doubt) , please?
3.5

Where do these numbers come from? They come from patent US11964973B2.
